# MEASURED_TARGET: PI3 Kinase
# TEST_NAME: PI3K fluorescence polarization assay
# TEST_CONTEXT: 25 μM ATP, diC8-PI(4,5)P2 substrate, 1 hour at 25° C.; read-out: PI3 Kinase Median IC50
pIC50: −log10 of the molar value.
Record TRUE whenever pIC50 is at 7 or higher; record FALSE when lower.

1. OCc1cccc(-c2nc(N3CCOCC3)c3ncn(C4CCN(Cc5cncc(F)c5)CC4)c3n2)c1: FALSE
2. Cc1ccc(CN2CCC(n3cnc4c(N5CCOCC5)nc(-c5cccc(CO)c5)nc43)CC2)s1: FALSE
3. c1ccc2c(-c3nc(N4CCOCC4)c4nc[nH]c4n3)csc2c1: FALSE
4. CN(C)CCCOc1ccc(CN2CCC(n3cnc4c(N5CCOCC5)nc(-c5cccc(CO)c5)nc43)CC2)cc1: TRUE
5. Cc1cccc(-c2nc(N3CCOCC3)c3nc[nH]c3n2)c1: FALSE
6. CC(C)(C)OC(=O)N1CCC(n2cnc3c(N4CCOCC4)nc(-c4cccc(O)c4)nc32)CC1: FALSE
7. OCc1cccc(-c2nc(N3CCOCC3)c3ncn(C4CCN(Cc5cccc(Br)n5)CC4)c3n2)c1: TRUE
8. CN(C)C(=O)c1ccc(-c2nc(N3CCOCC3)c3nc[nH]c3n2)cc1: FALSE
9. c1ccc(Oc2ccccc2-c2nc(N3CCOCC3)c3nc[nH]c3n2)cc1: FALSE
10. COc1ccc(CN2CCC(n3cnc4c(N5CCOCC5)nc(-c5cccc(CO)c5)nc43)CC2)cn1: FALSE
11. OCc1cccc(-c2nc(N3CCOCC3)c3ncn(CC4CCN(Cc5ccccc5)CC4)c3n2)c1: FALSE
12. c1nc2c(N3CCOCC3)nc(-c3ccc4c(c3)OCO4)nc2[nH]1: FALSE
13. OCc1cccc(-c2nc(N3CCOCC3)c3ncn(C4CCN(Cc5ccc(Cl)nc5)CC4)c3n2)c1: TRUE
14. Oc1cccc(-c2nc(N3CCOCC3)c3ncn(CC4CCN(Cc5ccccc5)CC4)c3n2)c1: FALSE

====

# MEASURED_TARGET: PI3 Kinase
# TEST_NAME: PI3K fluorescence polarization assay
# TEST_CONTEXT: 25 μM ATP, diC8-PI(4,5)P2 substrate, 1 hour at 25° C.; read-out: PI3 Kinase Median IC50
1 if IC50 is below 80 nM. -1 if not; exact matches included in -1.

1. OCc1cccc(-c2nc(N3CCOCC3)c3ncn(C4CCN(Cc5ccco5)CC4)c3n2)c1: 1
2. CN(C)c1ccc(CN2CCC(n3cnc4c(N5CCOCC5)nc(-c5cccc(O)c5)nc43)CC2)c2ccccc12: -1
3. OCc1cccc(-c2nc(N3CCOCC3)c3ncn(C4CCN(Cc5ncc[nH]5)CC4)c3n2)c1: -1
4. OCc1cncc(-c2nc(N3CCOCC3)c3ncn(C4CCN(Cc5ccccc5)CC4)c3n2)c1: 1
5. CCCCN1CCC(n2cnc3c(N4CCOCC4)nc(-c4cccc(CO)c4)nc32)CC1: -1
6. OCc1cccc(-c2nc(N3CCOCC3)c3ncn(C4CCN(Cc5ccccc5F)CC4)c3n2)c1: 1
7. Oc1cncc(-c2nc(N3CCOCC3)c3ncn(C4CCNCC4)c3n2)c1: 1
8. OCc1cccc(-c2nc(N3CCOCC3)c3ncn(CCN4CCCCC4)c3n2)c1: -1
